Test: qHTS assay to identify small molecule agonists of the TGF-beta/Smad signaling pathway - cell viability counter screen (AID 1346829); further: nearly all actives have a fitted effect of over 45% in size
Details: SBE-bla HEK293T viability, CellTiter-Glo luminescence, 5 h; series mostly up to 76.8 µM
Inconclusive results are not listed. Active and inactive are the calls of the source. The call rests on the fitted dose curve; in most records, active means well fitted cell-killing curve with a large enough effect in the repeat runs; inconclusive means weak or mixed curves, or effect the other way; inactive means flat fitted curve, though single readings scatter.
A correct response names exactly one class from 1 (active), -1 (inactive)

# COMPOUND, LABEL VALUE
data = [
    ("COP(=O)(OC)O/C(=C\\Cl)c1cc(Cl)c(Cl)cc1Cl", -1),
    ("CCCN", -1),
    ("CC(C)NCC(O)c1ccccc1Cl (centres undefined)", -1),
    ("CN1CCc2cc(Cl)c(O)cc2[C@H]2c3ccccc3CC[C@@H]21", -1),
]

Q) # fetch the recorded call for O=S1(=O)OCC2C(CO1)C1(Cl)C(Cl)=C(Cl)C2(Cl)C1(Cl)Cl (centres undefined) here
A) -1

Q) How was `CC[C@H](C)[C@H]1O[C@]2(C=C[C@@H]1C)C[C@@H]1C[C@@H](C/C=C(\C)[C@@H](O[C@H]3C[C@H](OC)[C@@H](O[C@H]4C[C@H](OC)[C@@H](NC)[C@H](C)O4)[C@H](C)O3)[C@@H](C)/C=C/C=C3\CO[C@@H]4[C@H](O)C(C)=C[C@@H](C(=O)O1)[C@]34O)O2` classified in this test?
A) 1

Q) Lab log entry: `Cc1c([N+](=O)[O-])c(C)c([N+](=O)[O-])c(C(C)(C)C)c1[N+](=O)[O-]` — outcome as called in the assay?
A) -1

Q) For `N#Cc1c2ccccc2cc2ccccc12` , which call appears in the assay record?
A) -1

Q) Answer briefly: the call reported for `COc1ccc2c3c1O[C@H]1[C@H](O)CC[C@H]4[C@@H](C2)N(C)CC[C@@]341` in this assay.
A) -1

* * *

Test: qHTS assay to identify small molecule antagonists of the sonic hedgehog signaling (Shh) pathway (AID 1259369); further: nearly all actives have a fitted effect of over 45% in size
Conditions: NIH/3T3 Gli1-Luc reporter, Shh antagonist, luminescence 24 h; series mostly up to 92.4 µM
Results filed as inconclusive are left out. Activity calls are given as the source filed them. The call rests on the fitted dose curve.
// classify into class 1 = active, class 0 = inactive

Solved entries (count: 5):
# COMPOUND, LABEL VALUE
data = [
    ("C=C(C)C(=O)[O][Sn]([CH2]CCC)([CH2]CCC)[CH2]CCC", "class 1"),
    ("CCn1cc[n+](C)c1 (tested in a mixture with another compound)", "class 0"),
    ("CN=C=O", "class 0"),
    ("Clc1ccc(C(c2ccc(Cl)cc2)C(Cl)Cl)cc1", "class 1"),
    ("CCCCC(CC)COC(=O)c1ccccc1C(=O)OCC(CC)CCCC (stereo unspecified)", "class 0"),
]

Q) Please state the recorded outcome for this compound: CCC(OC(C)=O)C(CC(C)NC)(c1ccccc1)c1ccccc1 (stereo unspecified)
A) class 1

Q) I would be grateful if you could indicate the recorded call for `Nc1cc(Cl)ccc1Cl` .
A) class 0

Q) Look up the recorded call for `N#Cc1ccc(N(CC(N)=O)CC(F)(F)F)cc1C(F)(F)F` in this test.
A) class 0

Q) Which outcome did this test record for the compound `COc1ccc(Cc2nccc3cc(OC)c(OC)cc23)cc1OC` ?
A) class 1

Q) Each compound tested received a call. Report the one for `Brc1cccc(-c2ccccc2)c1` .
A) class 0

Q) // outcome(item) with item = `c1ccc2nc(N3CCNCC3)ccc2c1`
A) class 0
